Hey, just so you know, these numbers are from PubChem BioAssay (NCATS).

# protocol-notes: Quantitative High-Throughput drug screen in 47 multiple myeloma cell lines against the NCATS MIPE library collection: UTMC2_PLB cell viability assay (AID 1919868); note: nearly all actives have a fitted effect of over 55% in size
# measurement-setup: CellTiter-Glo ATP luminescence, 48 h
Inconclusive results are not listed. Activity calls are given as the source filed them. Calls come from the whole dose curve; as a rule, active = well fitted cell-killing curve with a large enough effect; inconclusive = small, poorly fitted or top-dose-only effect, or effect the other way; inactive = no such curve, though single readings can be large or run the other way.
Write down one outcome, taken from yes (1) = active, no (0) = inactive

[
  {
    "molecule": "O=C(NNC(=O)c1ccc(CNS(=O)(=O)c2ccc(F)c(Cl)c2)cc1)c1ccccc1",
    "assigned-label": "no (0)"
  },
  {
    "molecule": "COc1cccc2c1C(=O)c1c(O)c3c(c(O)c1C2=O)C[C@@](O)(C(=O)CO)C[C@H]3O[C@H]1C[C@H](N)[C@H](O)[C@H](C)O1",
    "assigned-label": "yes (1)"
  },
  {
    "molecule": "C=CC(=O)Nc1cc(NC(=O)c2ccc(C)c(NC(=O)c3ccno3)c2)cc(C(F)(F)F)c1",
    "assigned-label": "yes (1)"
  },
  {
    "molecule": "NC(=NCCCCCCN=C(N)N=C(N)Nc1ccc(Cl)cc1)N=C(N)Nc1ccc(Cl)cc1",
    "assigned-label": "yes (1)"
  },
  {
    "molecule": "C=CC[C@@H]1C=C(C)C[C@H](C)C[C@H](OC)[C@H]2O[C@@](O)(C(=O)C(=O)N3CCCC[C@H]3C(=O)O[C@H](C(C)=C[C@@H]3CC[C@H](O)[C@H](OC)C3)[C@@H](C)[C@@H](O)CC1=O)[C@@H](C)C[C@@H]2OC",
    "assigned-label": "yes (1)"
  }
]

Now look at this one.
query: # lookup: test call for CN1C(C(=O)Nc2ccccn2)=C(O)c2sc(Cl)cc2S1(=O)=O
result: yes (1)
